System: Streptococcus sp.
protocol.description: in vitro antibacterial evaluation, MIC by broth dilution
Format: cell-based
condition.notes: broth dilution, 18 hours at 35° C.; strain ATCC 6301
measure.name: MIC Streptococcus pneumoniae (ATCC 6301) (µg/mL)
One number for each entry, in µg/mL.

compound	MIC Streptococcus pneumoniae (ATCC 6301) [µg/mL]
CC(c1ccccc1)C1NC(=O)CNC(=O)C(CO)NC(=O)C(C(O)C2CN(Cc3ccccc3-c3ccccc3)C(=N)N2C2OC(CO)C(O)C(O)C2O)NC(=O)C(C(O)C2CNC(=N)N2)NC(=O)C(Cc2ccc(OC3OC(CO)C(OC4OC(CO)C(O)C(O)C4O)C(O)C3O)cc2)NC1=O (stereo not shown) [Example 65]	128

Next item in the queue.
Lab note: need MIC Streptococcus pneumoniae (ATCC 6301) for CCCCCCCN1CC(C(O)C2NC(=O)C(C(O)C3CNC(=N)N3)NC(=O)C(Cc3ccc(OC4OC(CO)C(OC5OC6COC7(OC6C(O)C5O)C5CC6CC(C5)CC7C6)C(O)C4O)cc3)NC(=O)C(C(C)c3ccccc3)NC(=O)CNC(=O)C(CO)NC2=O)N(C2OC(CO)C(O)C(O)C2O)C1=N (stereo not shown) [Example 83] on Streptococcus sp., anyone have it?
0.5

###

I'd appreciate it if you could supply MIC Coagulase Negative Staphylococcus (GC 4549) values for the items below.
Tested on: Staphylococcus sp.
protocol.description: in vitro antibacterial evaluation, MIC by broth dilution
Format: cell-based
condition.notes: strain GC 4549; broth dilution, 18 hours at 35° C.
Answers are plain numbers, in µg/mL.

compound	unit.text	readout.value
CC(c1ccccc1)C1NC(=O)CNC(=O)C(CO)NC(=O)C(C(O)C2CNC(=N)N2C2OC(CO)C(O)C(O)C2O)NC(=O)C(C(O)C2CNC(=N)N2)NC(=O)C(Cc2ccc3oc(SCc4ccccc4)nc3c2)NC1=O (stereo not drawn)	µg/mL	4
CC(c1ccccc1)C1NC(=O)CNC(=O)C(CO)NC(=O)C(C(O)C2CNC(=N)N2C2OC(CO)C(O)C(O)C2O)NC(=O)C(C(O)C2CNC(=N)N2)NC(=O)C(Cc2ccc(OC3OC(CO)C(OC4OC5COC6(OC5C(O)C4O)C4CCCC6CCC4)C(O)C3O)cc2)NC1=O (stereo not drawn)	µg/mL	2
CC(c1ccccc1)C1NC(=O)CNC(=O)C(CO)NC(=O)C(C(O)C2CNC(=N)N2C2OC(CO)C(O)C(O)C2O)NC(=O)C(C(O)C2CNC(=N)N2)NC(=O)C(Cc2ccc(OC3OC(CO)C(OC4OC5COC6(CC(C)(C)CC(C)(C)C6)OC5C(O)C4O)C(O)C3O)cc2)NC1=O (stereo not drawn)	µg/mL	0.5
CC(c1ccccc1)C1NC(=O)CNC(=O)C(CO)NC(=O)C(C(O)C2CNC(=N)N2C2OC(CO)C(O)C(O)C2O)NC(=O)C(C(O)C2CNC(=N)N2)NC(=O)C(Cc2ccc(OC3OC(CO)C(OC4OC5COC(c6ccc(C(=O)c7ccc(I)cc7)cc6)OC5C(O)C4O)C(O)C3O)cc2)NC1=O (stereo not drawn)	µg/mL	1

Report MIC Coagulase Negative Staphylococcus (GC 4549) for every entry below.
1. CCCCCCN=C1NCC(C(O)C2NC(=O)C(C(O)C3CNC(=N)N3)NC(=O)C(Cc3ccc(OC4OC(CO)C(OC5OC6COC7(OC6C(O)C5O)C5CC6CC(C5)CC7C6)C(O)C4O)cc3)NC(=O)C(C(C)c3ccccc3)NC(=O)CNC(=O)C(CO)NC2=O)N1C1OC(CO)C(O)C(O)C1O (stereo not drawn)
2. CC(c1ccccc1)C1NC(=O)CNC(=O)C(CO)NC(=O)C(C(O)C2CNC(=N)N2C2OC(CO)C(O)C(O)C2O)NC(=O)C(C(O)C2CNC(=N)N2)NC(=O)C(Cc2ccc3oc(-c4cccc(F)c4)nc3c2)NC1=O (stereo not drawn)
3. CC(c1ccccc1)C1NC(=O)CNC(=O)C(CO)NC(=O)C(C(O)C2CNC(=N)N2C2OC(CO)C(O)C(O)C2O)NC(=O)C(C(O)C2CNC(=N)N2)NC(=O)C(Cc2ccc3oc(C=C(c4ccccc4)c4ccccc4)nc3c2)NC1=O (stereo not drawn)
4. CC(c1ccccc1)C1NC(=O)CNC(=O)C(CO)NC(=O)C(C(O)C2CNC(=N)N2C2OC(CO)C(O)C(O)C2O)NC(=O)C(C(O)C2CNC(=N)N2)NC(=O)C(Cc2ccc3oc(SCc4ccc(-c5ccccc5)cc4)nc3c2)NC1=O (stereo not drawn)
5. CC(c1ccccc1)C1NC(=O)CNC(=O)C(CO)NC(=O)C(C(O)C2CNC(=N)N2C2OC(CO)C(O)C(O)C2O)NC(=O)C(C(O)C2CNC(=N)N2)NC(=O)C(Cc2ccc(OC3OC(CO)C(OC4OC5COC(c6ccc(C(=O)c7cc(I)c(I)c(I)c7)cc6)OC5C(O)C4O)C(O)C3O)cc2)NC1=O (stereo not drawn)

[4, 16, 4, 0.5, 64]

###

Task for the reader: assign each of the following compounds its reported Clinical Chemistry (Day 10) % of Control, Creatinine.
protocol.description: clinical pathology (serum clinical chemistry) in mice
Type: in vivo
condition.notes: CD-1 mice, 20 mg/kg intravenously daily for 9 days, sera day 10
Procedure: 20-day-old CD-1 mice were divided into a vehicle control group (5 mice) and a treatment group (5 mice). Samples of glycopeptide antibiotics were administered at 20 mg/kg intravenously daily for 9 days.
Numbered stars: 1 amine (or outer) side, 2 acyl side, 3 side chain; on linkers, the order of the positions; unused ones are H or OH. Square brackets hold non-standard residues; d marks the D form. Peptide text beside a SMILES is read from it. * marks the point of attachment. ξ: configuration not given here. X1 = N=C1NCC(C(O)C(N[*:1])C(=O)[*:2])N1C1OC(CO)C(O)C(O)C1O; ξEnduracididine(βξ-OH,4'ξ) = N=C1NCC(C(O)C(N)C(=O)O)N1; X2 = OCC1OC(OC2C(CO)OC(*)C(O)C2O)C(O)C(O)C1O; Cha = N[CH](CC1CCCCC1)C(=O)O

// worked examples, Clinical Chemistry (Day 10) % of Control, Creatinine included
compound	readout.value
CC(c1ccccc1)C1NC(=O)CNC(=O)C(CO)NC(=O)C(C(O)C2CN(CCCCCCCCCCCCO)C(=N)N2C2OC(CO)C(O)C(O)C2O)NC(=O)C(C(O)C2CNC(=N)N2)NC(=O)C(Cc2ccc(OC3OC(CO)C(OC4OC(CO)C(O)C(O)C4O)C(O)C3O)cc2)NC1=O (centres unmarked) [Example 61]	+122%
COc1ccc2cc(COCC3OC(OC4C(CO)OC(Oc5ccc(CC6NC(=O)C(C(C)c7ccccc7)NC(=O)CNC(=O)C(CO)NC(=O)C(CC7CNC(=N)N7C7OC(CO)C(O)C(O)C7O)NC(=O)C(CC7CNC(=N)N7)NC6=O)cc5)C(O)C4O)C(O)C(O)C3O)ccc2c1 (centres unmarked) [Example 245]	+138%
N=C1NCC(C(O)C2NC(=O)C(Cc3ccc(OC4OC(CO)C(OC5OC(CO)C(O)C(O)C5O)C(O)C4O)cc3)NC(=O)C(CC3CCCCC3)NC(=O)CNC(=O)C(CO)NC(=O)C(C(O)C3CNC(=N)N3C3OC(CO)C(O)C(O)C3O)NC2=O)N1 (stereo not drawn) [Example 263] (cyclo(G[Cha]Y(X2)[ξEnduracididine(βξ-OH,4'ξ)][X1]S); configuration not given here)	+116%
CC(c1ccccc1)C1NC(=O)CNC(=O)C(CO)NC(=O)C(C(O)C2CNC(=N)N2C2OC(CO)C(O)C(O)C2O)NC(=O)C(C(O)C2CNC(=N)N2)NC(=O)C(Cc2ccc(OC3OC(CO)C(OC4OC5COC(c6ccccc6)OC5C(O)C4O)C(O)C3O)cc2)NC1=O (centres unmarked) [Example 104]	+65%
COc1ccc2cc(COC3C(CO)OC(OC4C(CO)OC(Oc5ccc(CC6NC(=O)C(C(C)c7ccccc7)NC(=O)CNC(=O)C(CO)NC(=O)C(CC7CNC(=N)N7C7OC(CO)C(O)C(O)C7O)NC(=O)C(CC7CNC(=N)N7)NC6=O)cc5)C(O)C4O)C(O)C3O)ccc2c1 (centres unmarked) [Example 245a]	+133%

Report Clinical Chemistry (Day 10) % of Control, Creatinine for each item below.
1. CC(c1ccccc1)C1NC(=O)CNC(=O)C(CO)NC(=O)C(C(O)C2CNC(=N)N2C2OC(CO)C(O)C(O)C2O)NC(=O)C(C(O)C2CNC(=N)N2)NC(=O)C(Cc2ccc(OC3OC(CO)C(OC4OC5COC(Cc6ccccc6)OC5C(O)C4O)C(O)C3O)cc2)NC1=O (centres unmarked) [Example 102]
2. COc1ccc2cc(COCC3OC(OC4C(CO)OC(Oc5ccc(CC6NC(=O)C(C(C)c7ccccc7)NC(=O)CNC(=O)C(CO)NC(=O)C(C(O)C7CNC(=N)N7C7OC(CO)C(O)C(O)C7O)NC(=O)C(C(O)C7CNC(=N)N7)NC6=O)cc5)C(O)C4O)C(O)C(O)C3O)ccc2c1 (centres unmarked) [Example 230]
3. CC(c1ccccc1)C1NC(=O)CNC(=O)C(CO)NC(=O)C(C(O)C2CNC(=N)N2C2OC(CO)C(O)C(O)C2O)NC(=O)C(C(O)C2CNC(=N)N2)NC(=O)C(Cc2ccc(OC3OC(CO)C(OC4OC5COC(c6ccc(C(=O)O)cc6)OC5C(O)C4O)C(O)C3O)cc2)NC1=O (centres unmarked) [Example 141]

["+100%", "+124%", "+113%"]

Where do these numbers come from? They come from patent US6914045B2.
